- PROTOCOL_SUMMARY: Effect of gamma sterilization (25-35 kGy) on preservatives in buffer
- Format: physicochemical
- STATED_CONDITIONS: gamma sterilization 25-35 kGy

CHEM_SMILES	Result post-gamma sterilization
CCCOC(=O)c1ccc(O)cc1	Precipitated
N=C(NCCCCCCNC(=N)NC(=N)Nc1ccc(Cl)cc1)NC(=N)Nc1ccc(Cl)cc1	Precipitated
